assayTarget: HIF-2α HIS TAG-PASB Domain (Homo sapiens, UniProt Q99814)
Construct: 100 nM HIF-2α HIS TAG-PASB Domain
Sequence (Q99814 240-350 limits assumed): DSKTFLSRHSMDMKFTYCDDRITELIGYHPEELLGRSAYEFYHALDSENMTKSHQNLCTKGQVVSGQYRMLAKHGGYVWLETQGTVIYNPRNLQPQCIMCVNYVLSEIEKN
methodSummary: HIF-2α Scintillation Proximity Assay (SPA)
Format: binding
testParameters: read-out: Scintillation Proximity Assay IC50
Description: The total assay volume was about 100 μL in the following configuration: 2 μL compound in 100% DMSO, 88 μL buffer with protein and probe and 10 μL of SPA beads. […] The percent inhibition was determined and IC50 values were calculated using the Dotmatics system based on the following equation: % inhibition=[(high control−sample)/(high control−low control)]×100.
pIC50: −log10 of the molar value.
quantityMeasured: pIC50

- O=S(=O)(c1ccc(-c2ccccc2O)c2c1[C@H](O)C(F)(F)C2)C(F)(F)F [Compound 564]: < 6.00
- CCOc1ccc(S(C)(=O)=O)c2c1CC(F)(F)[C@H]2O [Compound 778]: > 7.30
- O=S(=O)(c1ccc(Oc2ccc(F)c(F)c2)c2c1[C@H](O)C(F)(F)C2)C(F)(F)F [Compound 233]: > 7.30
- CS(=O)(=O)c1ccc(Oc2cncc(C#N)c2)c2c1[C@H](O)[C@H](F)C2 [Compound 313]: < 6.00
- CO[C@H]1C[C@H](Oc2ccc(S(=O)(=O)C(F)(F)F)c3c2CC(F)(F)[C@H]3O)C1 [Compound 714]: 6.60 to 7.30
- CS(=O)(=O)NCCOc1ccc(S(=O)(=O)C(F)(F)F)c2c1CC(F)(F)C2O (centres unmarked) [Compound 637]: 6.00 to 6.60
- O=S(=O)(c1ccc(OCCO)c2c1C(O)C(F)(F)C2)C(F)(F)F (centres unmarked) [Compound 614]: 6.60 to 7.30
- Cc1cncc(Oc2ccc(S(C)(=O)=O)c3c2CC(F)(F)[C@H]3O)n1 [Compound 201]: > 7.30
- O=S(=O)(c1ccc(Oc2cc(F)cc(Cl)c2)c(Cl)c1Cn1ccnc1)C(F)F [Compound 45]: < 6.00
- CNS(=O)(=O)c1ccc(Oc2cc(F)cc(F)c2)c2c1C(O)CC2 (centres unmarked) [Compound 211]: < 6.00
- Cc1c(S(=O)(=O)C(F)F)ccc(Oc2cc(F)cc(C#N)c2)c1C#N [Compound 33]: 6.60 to 7.30
- CCC(COC)Oc1ccc(S(=O)(=O)C(F)(F)F)c2c1CC(F)(F)C2O (centres unmarked) [Compound 747]: 6.60 to 7.30
- CS(=O)(=O)c1ccc(OCC2CC2(F)F)c2c1[C@H](O)C(F)(F)[C@@H]2F (some centres unmarked) [Compound 756]: > 7.30
- N#Cc1cc(F)cc(Oc2ccc(Br)c3c2C(F)(F)C(F)(F)C3)c1 [Compound 248]: < 6.00
- CS(=O)(=O)c1ccc(O[C@H]2C[C@H](F)C2)c2c1[C@H](O)C(F)(F)[C@H]2F [Compound 737]: 6.60 to 7.30
- O[C@H]1c2c(C(F)(F)F)ccc(OCCCF)c2[C@H](F)C1(F)F [Compound 701]: 6.60 to 7.30
- CC(Oc1ccc(S(=O)(=O)C(F)(F)F)c2c1CC(F)(F)C2O)C(N)=O (centres unmarked) [Compound 649]: < 6.00
